- test_method_notes: Aerosol quality by laser diffractometry (Respimat SMI)
- Type: physicochemical
- study_conditions: treprostinil-aerosol from Respimat SMI
quantity_kind: aerosol particles mass median aerodynamic diameter

smiles_representation: CCCCC[C@H](O)CC[C@@H]1[C@H]2Cc3cccc(OCC(=O)[O-])c3C[C@H]2C[C@H]1O.[Na+]
result: 4 to 5 µm

###

- test_method_notes: Treprostinil plasma concentrations after single inhalation (study ii), LC-MS/MS
- study_conditions: human, plasma, inhaled, 120 ug

smiles_representation: CCCCC[C@H](O)CC[C@@H]1[C@H]2Cc3cccc(OCC(=O)[O-])c3C[C@H]2C[C@H]1O.[Na+]
Cmax / ng/mL: 3.51

###

- test_method_notes: Treprostinil plasma concentrations after single inhalation (study ii), LC-MS/MS
- study_conditions: human, plasma, inhaled, 90 ug
quantity_kind: Cmax (ng/mL)

smiles_representation: CCCCC[C@H](O)CC[C@@H]1[C@H]2Cc3cccc(OCC(=O)[O-])c3C[C@H]2C[C@H]1O.[Na+]
quantity_kind: Cmax
output_unit: ng/mL
measured_number: 1.74

###

- test_method_notes: Treprostinil plasma concentrations after single inhalation (study ii), LC-MS/MS
- study_conditions: human, plasma, inhaled, 30 ug

smiles_representation: CCCCC[C@H](O)CC[C@@H]1[C@H]2Cc3cccc(OCC(=O)[O-])c3C[C@H]2C[C@H]1O.[Na+]
output_unit: ng/mL
Cmax: 0.65
